Molecular target: T1, Rhesus CD137-Fc tagged protein (rhesus, UniProt H9Z8K9 24-186)
T1 construct: extracellular domain; The Octet paragraph gives no catalogue number; also called rhCD137-Fc
Test: BLI (Octet RED384), CD137-Fc on Protein G sensor, 1:1 model
kon for assorted binders

# binder, kon
records = [
    ("003BB172-E01-10 (VHH, Human VH single domain antibody, monovalent) VHH: EVQLVESGGGLVQPGRSLRLSCAASGFTFSNYGMHWVRQAPGKGLEWVAVISNDGNTKTYADSVKGRFTISRDNSKNTLYLQMNSLRTEDTAVYYCAQDETTTVTASYYFDYWGQGTLVTVSS", "67400 M⁻¹ s⁻¹"),
    ("003BB172-E01-5 (VHH, Human VH single domain antibody, monovalent) VHH: EVQLVESGGGLVQPGGSLRLSCAASGFTFSNYGMHWVRQAPGKRLEWVAVISNDGNTKTYADSVKGRFTISRDNSKNTLYLQMNSLRTEDTAVYYCAQDETTTVTASYYFDYWGQGTLVTVSS", "142000 M⁻¹ s⁻¹"),
    ("003BB172-E01-7 (VHH, Human VH single domain antibody, monovalent; also called CD137C) VHH: EVQLVESGGGLVQPGGSLRLSCAASGFTFSNYGMHWVRQAPGKGLEWVAVISNDGNTKTYADSVKGRFTISRDNSKNTLYLQMNSLRTEDTAVYYCAQDETTTVTASYYFDYWGQGTLVTVSS", "57300 M⁻¹ s⁻¹"),
]

The measurements presented in this section are drawn from patent US20220220215A1.
